Quick reference: IC50 of the listed items.
- Test system: Human alphaherpesvirus 1
- procedure-summary: The compound was tested for plaque inhibition in HSV-1 in cell culture, activity is determined by plaque reduction assay
- Format: functional, organism-based
Give your result in µM as a bare value.

>>> print(df.to_string())
               structure_string  number
0  Nc1nc2c(ncn2COCCO)c(=O)[nH]1     0.1

Switching to the query record.
Entry under review: NCCOCn1cnc2c(O)nc(N)nc21 . Reported IC50?
8
